B1: TPR t1 (parent)
chain: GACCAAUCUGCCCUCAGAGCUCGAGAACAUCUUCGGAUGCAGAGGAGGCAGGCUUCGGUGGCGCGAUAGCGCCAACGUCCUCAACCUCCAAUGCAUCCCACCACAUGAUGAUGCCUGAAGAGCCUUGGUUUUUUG

variants of: B1; assay: polymerase ribozyme fitness, log enrichment relative to wild type (log ratio); higher = more active; in vitro selection for triplet polymerase activity
Cut-off -4 on polymerase ribozyme fitness (log ratio), inclusive. At or above means met; below means not met.

variant-code | discrete-label
G42C G69C C86A G117C | not met
U59A C88U A118U | met
C20A C28U C62U C101A G113A | not met
A26U C53U G69C C115G G117C U133G | not met
C86A A90U | met
C11U U21G G42A U96G | not met
C20A C56U U96G | met
A91U C115U | met
G61A C73U A91C C101A | met
C8G A26U A29G | met
C11G C64U C72A C89U | met
G39U G52U | met
C11G G35A A84U | not met
C12A C89U | met
G42A C70A C88G | not met
C11U U14G G19U A29G C31U U32C C72G A111U U129A | not met
C11G C15U C56U A83U | met
G47A U133A | met
U59C C124A | met
C11G C114A | met
A29U C123A | met
C11U G42C G44U C62U | met
C11U C70U | met
A26C C53U U54A G60U | not met
U9A G120C | met
C70G G93C | not met
C72A G107A | not met
C4G C13U U21C C62G G120U | met
U54A G61A C124A G128U | met
G36C C53A C115U U116G | not met
G45A G120C | met
C8G G10C U55G A91C | met
C56U C82U C86A U112G U129C | met
C11G C56U | met
C70G C88U | met
C3G U96A | met
U14A C70U C104U | met
C12G C15G A46U A74G U78A C114A | not met
G25U G61U | not met
A2C C72A G110U | not met
C11G A27G | met
U21C U30G C31A G36C C124A | not met
C28U C123U | met
C80A U116G G120C C123A | met
